# Tested on: CCRF-CEM
# ASSAY REMARKS: NCI tumour cell line growth inhibition, 48 h
The source made the active and inactive calls. Rule as the data show it: active = GI50 up to about 1.1 µM and inactive = higher.
QUANTITY KIND: GI50

COMPOUND: C=C(C)CNCCN
TEST TARGET: CCRF-CEM
GI50: > 100 µM (inactive)
--
COMPOUND: O=C(Nc1ccccc1-c1nc2ccccc2[nH]c1=O)c1ccccc1
TEST TARGET: CCRF-CEM
GI50: > 100 µM (inactive)

// query What does the data say about its GI50? Entry: O=C(O)/C=N/NC(=S)NC1CCCCC1
// result > 100 µM (inactive)

// query Which GI50 is reported for this compound? [N-]=[N+]=NC1=C(c2ccccn2)C(=O)c2cccc3cccc1c23
// result 7.03 µM (inactive)

// query I would be grateful if you could share the reported GI50 for O=[N+]([O-])c1ccc(C2SCc3nc4ccccc4n32)cc1 (configuration not stated) .
// result 65.9 µM (inactive)

// query // returns reported GI50 for input O=C(/C=C/C1C(=O)NC(=O)NC1=O)CC(=O)C(=O)Nc1cc(Cl)c(Cl)cc1Cl
// result > 100 µM (inactive)

// query Entry O=C1c2cc([N+](=O)[O-])cnc2S(=O)(=O)N1c1ccc(Oc2ccccc2)cc1 has what GI50?
// result 39 µM (inactive)
